Biological target: HIV protease (Human immunodeficiency virus type 1 group M subtype B)
Test: Enzymatic (fluorometric FRET) assay for determining the inhibition constant (Ki)
Assay type: biochemical
Settings: Ki, EDANS/DABCYL substrate, equation of Henderson
Description: Enzymatic assay for determining the inhibition constant (Ki) of synthetic compounds targeting the HIV protease This is a fluorometric assay based on the cleavage by protease of a substrate carrying a donor group (EDANS) and an acceptor group (DABCYL) on each side of the cleavage site, interacting together through fluorescence resonance energy transfer (FRET) as described by Matayoshi et al. (Science 247:[…], 1990). […] Graphs are traced and the Ki determined using GraphPad Prism software v. […]
METRIC_NAME: pKi
Answers are plain numbers, as −log10 of the molar value.

Quick request: pKi for each listed item, please.
1. CC(C)CCN([C@H](CO)CCCCNC(=S)N(Cc1ccc(F)cc1)Cc1ccc2c(c1)OCCO2)S(=O)(=O)c1ccc(N)cc1
2. CC(C)CCN([C@H](CO)CCCCNC(=O)N(Cc1ccc(F)cc1)Cc1ccc2c(c1)OCO2)S(=O)(=O)c1ccc(N)cc1
3. CC(C)CN([C@H](CO)CCCCNC(=O)N(Cc1ccccc1)Cc1ccc(F)cc1F)S(=O)(=O)c1ccc(N)cc1
4. COc1cccc(CN(Cc2ccc3c(c2)OCO3)C(=O)NCCCC[C@@H](CO)N(CCC(C)C)S(=O)(=O)c2ccc(N)cc2)c1

1: 8.00; 2: 8.31; 3: 7.92; 4: 8.66

Quick request: pKi for each listed item, please.
1. CC(C)CCN([C@H](CO)CCCCNC(=O)N(Cc1ccc(F)cc1)Cc1ccc2c(c1)OCCO2)S(=O)(=O)c1ccc(N)cc1
2. CC(C)CN([C@H](CO)CCCCNC(=O)N(Cc1ccccc1)Cc1cccc2c1OCO2)S(=O)(=O)c1ccc(N)cc1

[8.27, 8.27]

###

Hi there, I'd appreciate the recorded pKi for every entry that follows.
Target: HIV protease (Human immunodeficiency virus type 1 group M subtype B)
Assay: Enzymatic (fluorometric FRET) assay for determining the inhibition constant (Ki)
Assay type: biochemical
Conditions: Ki, EDANS/DABCYL substrate, equation of Henderson
Give bare numbers, as −log10 of the molar value.

CC(C)CCN([C@H](CO)CCCCNC(=O)N(Cc1ccccc1)Cc1ccc2c(c1)OCO2)S(=O)(=O)c1ccc(N)cc1 ... 8.39

Field: next compound
Noted for COc1ccc(CN(Cc2ccc3c(c2)OCO3)C(=O)NCCCC[C@@H](CO)N(CCC(C)C)S(=O)(=O)c2ccc(N)cc2)cc1 : its pKi reads 8.54

###

Biological target: HIV protease (Human immunodeficiency virus type 1 group M subtype B)
Assay: Enzymatic (fluorometric FRET) assay for determining the inhibition constant (Ki)
Format: biochemical
Settings: Ki, EDANS/DABCYL substrate, equation of Henderson
METRIC_NAME: pKi
Answers are plain numbers, as −log10 of the molar value.

CC(C)CCN([C@H](CO)CCCCNC(=O)N(Cc1ccc2c(c1)OCO2)CC(C)C)S(=O)(=O)c1ccc(N)cc1 ... 7.11

Quick request: pKi for each listed item, please.
1. COc1cc(CN(Cc2ccc3c(c2)OCO3)C(=S)NCCCC[C@@H](CO)N(CCC(C)C)S(=O)(=O)c2ccc(N)cc2)cc(OC)c1OC
2. COc1ccc(CN(Cc2ccc3c(c2)OCO3)C(=S)NCCCC[C@@H](CO)N(CCC(C)C)S(=O)(=O)c2ccc(N)cc2)cc1

1. 8.31
2. 8.44

Quick request: pKi for each listed item, please.
1. Cc1ccc(S(=O)(=O)N(CC(C)C)[C@@H](CCCCNC(=O)N[C@@H](Cc2ccccc2)C(=O)Nc2ccccc2)C(=O)O)cc1
2. CC(C)CCN([C@H](CO)CCCCNC(=O)N(Cc1ccccc1)Cc1cccc2c1OCO2)S(=O)(=O)c1ccc(N)cc1
3. Cc1ccc(S(=O)(=O)N(CC(C)C)[C@@H](CCCCNC(=O)N[C@@H](Cc2ccccc2)C(N)=O)C(=O)O)cc1

1. 7.22
2. 8.40
3. 7.22

Values from patent EP1480941B1
